These data points were gathered from a melting point compilation (Tetko et al.).

Recorded melting point by entry
MEASURED_ENDPOINT: melting point

* Cc1sc2nc(N)[nH]c(=O)c2c1C | 353 to 355 °C
* COc1ccccc1C(C)=CC(=O)O | 81 to 83 °C
* CC(C)(C)OC(=O)N1CCC(OCC(=O)O)CC1 | 102 to 104 °C
* Nc1nc(-c2ccc3ccccc3c2)n[nH]1 | 205 to 207 °C
* O=[N+]([O-])c1cccnc1N1CCC(CO)CC1 | 71 to 73 °C
* CC(C)(C)c1ccccc1S(=O)(=O)Cl | 59 to 61 °C
* Cc1cc(C(=O)O)nn1-c1ccccc1 | 182 to 184 °C
* OCc1c(Cl)nc(Cl)n1-c1ccccc1 | 139 to 141 °C
* Nc1nnc(-c2cc(F)cc(Br)c2)s1 | 192 to 194 °C
* O=C(Nc1ccccc1Cl)OCC(F)(F)F | 44 to 46 °C
* CCc1nc(-c2ccc(C(=O)O)cc2)n[nH]1 | 229 to 231 °C
* Oc1ccccc1-c1nnc2n1CCCCC2 | 271 to 273 °C
* O=[N+]([O-])c1ccccc1-c1cn[nH]c1 | 105 to 107 °C
* Cc1ccc(C(F)(F)C(=O)O)cc1 | 39 to 41 °C
* O=C1CCCc2c1[nH]c1ccc(Br)cc21 | 189 to 191 °C
* COC(=O)c1nc2nc(C(C)C)cc(Cl)n2n1 | 104 to 106 °C
* O=C(O)CNC(=O)c1cc(Cl)ccn1 | 188 to 190 °C

###

MEASURED_ENDPOINT: melting point

- Cn1c(=O)c2[nH]c(S)nc2n(C)c1=O: 328 to 330 °C
- NCc1ccnc(NC2CC2)c1: 39 to 41 °C
- O=c1[nH]c(CCl)nc2cc(-c3ccc(Cl)cc3)sc12: 217 to 219 °C
- CCC(=O)c1ccc(OC)c(OC)c1: 61 to 63 °C
- Brc1cn2ccnc2c(Br)n1: 152 to 154 °C
- C=CCNS(=O)(=O)C(C)(C)C: 53 to 55 °C
- O=C(O)c1ccc(N2CCOC2=O)cc1: 271 to 273 °C
- COC(=O)c1cc(F)c(Br)c([N+](=O)[O-])c1: 66 to 68 °C
- O=C(O)c1c(F)ccc(OC(F)F)c1F: 90 to 92 °C
- Cc1ccc2ncc(C(=O)O)c(O)c2c1: 269 to 271 °C
- CC(C)(C)OC(=O)NCC1CCCCS1 (stereo unspecified): 70 to 72 °C
- N#Cc1c2c(n(-c3ccccc3)c1NC(=O)CCl)CCCC2: 156 to 158 °C
- COC(=O)C(NS(C)(=O)=O)C(C)C (stereo unspecified): 46 to 48 °C
- Nc1cn[nH]c(=O)c1Cl: 299 to 301 °C
- COc1cc(-c2cc(C(=O)O)c3ccccc3n2)cc(OC)c1OC: 195 to 197 °C
- CC(=O)N1CCCNc2ccccc21: 132 to 134 °C

###

MEASURED_ENDPOINT: melting point

* Cc1c(N)cccc1CN1CCSCC1 | 80 to 82 °C
* O=C(O)c1noc(-c2ccccc2F)n1 | 189 to 191 °C
* CCOC(Cn1cc(C(=O)O)nn1)OCC | 138 to 140 °C
* O=C(O)[C@@H]1C[C@H]1c1cccnc1 (relative stereo) | 124 to 126 °C
* CC(=O)c1ccc(O)c(CN2CCOCC2)c1 | 70 to 72 °C
* CC(C)(C)NS(=O)(=O)c1ccccc1CN | 131 to 133 °C
* Cc1ccc(C(=O)O)cc1NC(=O)NC(C)(C)C | 336 to 338 °C
* CCOc1ncc(C(=O)O)cc1Cl | 214 to 216 °C
* Cc1nnc(NC(=O)OCC(F)(F)F)s1 | 231 to 233 °C
* COc1ccc2cc(C(=O)CBr)ccc2c1 | 108 to 110 °C
* CC(C)c1ccccc1Nc1nc2ccccc2s1 | 115 to 116 °C
* CC(C)c1ccc(C(CN)NC(=O)OC(C)(C)C)cc1 (stereo not given) | 123 to 125 °C
* N#Cc1sc2ccccc2c1N | 155 to 157 °C
* CC(=O)N1CCc2cc(NC(=O)CCl)ccc21 | 233 to 235 °C
* CCOc1cc(Br)c(C=O)cc1OCC | 71 to 72 °C
* O=C(Nc1nncs1)c1ccc(O)cc1 | 303 to 305 °C
* N#CCN1CCSCC1 | 51 to 53 °C
* Cc1ccc(NC2C=CS(=O)(=O)C2)cc1 (stereo not given) | 115 to 117 °C
* CC(C)(C)S(=O)(=O)c1ccc(Br)cn1 | 116 to 118 °C
* Cc1ccc(C(O)CN)cc1 (stereo not given) | 70 to 72 °C

###

Recorded melting point values for a group of molecules are listed next.
MEASURED_ENDPOINT: melting point

- O=C(O)c1cccc2[nH]ncc12: 285 to 287 °C
- CC(=O)NC(C)(C)C(=O)O: 190 to 192 °C
- CN(C)c1ccnc(Cl)n1: 79 to 81 °C
- Nc1nnc(-c2cnn(-c3ccccc3)c2)o1: 283 to 285 °C
- Nc1ccccc1C(=O)N1CCOCC1: 74 to 76 °C
- CCC1(c2ccc(F)cc2)NC(=O)NC1=O (stereo not drawn): 95 to 97 °C
- CS(=O)(=O)Nc1nnc(N)s1: 251 to 253 °C
- CN(C)C(=O)CN1C(=O)C(=O)c2cc(Br)ccc21: 194 to 196 °C

###

Some compounds, each annotated with its measured melting point.
MEASURED_ENDPOINT: melting point

• CN1CCC(C(=O)O)CC1=O (centres undefined) = 163 to 165 °C
• COC(=O)c1ccc(Cl)nc1Cl = 56 to 58 °C
• Nc1ccc(C(=O)OC2CCCC2)cc1 = 55 to 57 °C
• NC(=NO)C1CCCC1 = 74 to 76 °C
• O=C(c1ccccc1O)N1CCCCC1 = 133 to 135 °C
• O=C(O)/C=C/c1ccc(S(=O)(=O)NC2CC2)cc1 = 263 to 265 °C
• Nc1ccn(-c2cccc(C(F)(F)F)c2)n1 = 80 to 82 °C
• CC(=O)NCCOc1ccc(N)cc1 = 92 to 94 °C
• OCCC1CSCCN1 (centres undefined) = 86 to 88 °C
• CS(=O)(=O)c1cc([N+](=O)[O-])c(O)c([N+](=O)[O-])c1 = 221 to 223 °C
• CCN(CC)c1ccc(-c2nnc(S)o2)cc1 = 163 to 165 °C
• COC(=O)COc1c(C)cc(C=O)cc1C = 50 to 52 °C
• O=C(O)c1nccnc1C(=O)NCc1ccc(F)cc1 = 170 to 172 °C
• COc1cccc(C(C)=CC(=O)O)c1 = 102 to 104 °C

###

MEASURED_ENDPOINT: melting point

- CC(C)C(=O)NC(C)c1ccc(S(=O)(=O)Cl)s1 (configuration not stated): 68 to 70 °C
- Cc1nc(-c2ccccn2)[nH]c(=O)c1CC(=O)O: 209 to 211 °C
- CC(O)c1cc2ccccc2o1 (configuration not stated): < 17 °C
- O=Cc1cc(Br)c2c(c1)OCO2: 117 to 119 °C
- Nc1cc(C(=O)O)ccc1Br: 226 to 230 °C
- O=C(NC1CCOCC1)c1ccc(Cl)nn1: 152 to 154 °C
- CC(C)(C)OC(=O)NC1(CO)CC1: 75 to 77 °C
- CC(Cl)c1nc2scc(-c3ccccc3)c2c(=O)[nH]1 (configuration not stated): 165 to 167 °C
- CC1(C)NC(=O)N2C1=NC(=N)C2(C)C: 236 to 238 °C
- Cc1cccc(NCCC(N)=O)c1: 91 to 93 °C
- CC(CN)N1CCN(c2ccccc2)CC1 (configuration not stated): 91 to 93 °C
- Cc1cc(C(=O)O)c(C)nn1: 132 to 134 °C

###

Entries and their melting point values follow.
MEASURED_ENDPOINT: melting point

- CCOC(=O)c1c(-c2ccccc2)csc1N=CN(C)C: 95 to 97 °C
- Cc1ccc(-n2c(C)c(Br)c3c2CCCC3=O)cc1: 139 to 141 °C
- O=C(O)c1noc(-c2cccc(F)c2F)n1: 113 to 115 °C
- COc1ccc(-n2c(CCl)nc3ccccc32)cc1: 121 to 125 °C
- Nc1cc(-c2ccc(OC(F)F)cc2)no1: 88 to 90 °C
- Cc1sc(=O)n(CC(=O)O)c1C: 186 to 188 °C
- O=c1[nH]c(CCl)nc2ccc(Cl)cc12: 249 to 251 °C
- Sc1nnc(C2COc3ccccc3O2)o1 (stereo not drawn): 151 to 155 °C
